// provenance: patent US20060079453A1

assay-target: HLA-DR DRB1*0901 (DR9) (Homo sapiens, UniProt P01903+P01911, A100R/A103E/D57H/D86V/F55Y/F60I/F76Y/I96F/K127E/L162R/M171V/P40D/Q125H/Q99R/R33Q/R42F/S133A/S66N/T210M/V115G/W38K/Y107V/Y59G/Y89S)
assay-overview: biochemical
Assay type: binding
condition-details: DRB1 *0901
Provide the recorded pIC50 for the entries that follow.
Lab note — pIC50 values are minus log10 of concentrations in M.

Lookup: Give reported pIC50 value for CC[C@H](C)[C@H](NC(=O)[C@H](CO)NC(=O)[C@H](CC(N)=O)NC(=O)[C@H](C)NC(=O)[C@H](CC(C)C)NC(=O)[C@H](CCC(=O)O)NC(=O)[C@H](Cc1ccccc1)NC(=O)[C@@H](NC(=O)[C@H](CCSC)NC(=O)CN)C(C)C)C(=O)N[C@H](C(=O)N[C@@H](CC(C)C)C(=O)N1CCC[C@H]1C(=O)N[C@@H](Cc1ccccc1)C(=O)N[C@@H](CC(=O)O)C(=O)O)C(C)C
Found: 7.09

Lookup: Give reported pIC50 value for CC(C)C[C@H](NC(=O)[C@@H]1CCCN1C(=O)[C@H](Cc1c[nH]cn1)NC(=O)[C@@H]1CCCN1C(=O)[C@H](Cc1ccccc1)NC(=O)[C@H](CO)NC(=O)[C@H](Cc1c[nH]cn1)NC(=O)[C@H](CO)NC(=O)[C@@H](NC(=O)[C@H](CCC(N)=O)NC(=O)[C@H](Cc1ccccc1)NC(=O)[C@@H](NC(=O)[C@H](CCC(N)=O)NC(=O)CN)C(C)C)C(C)C)C(=O)N[C@@H](Cc1ccc(O)cc1)C(=O)O
Found: 7.48

Lookup: Give reported pIC50 value for CC[C@H](C)[C@H](NC(=O)[C@H](Cc1c[nH]c2ccccc12)NC(=O)[C@@H](NC(=O)[C@@H](N)C(C)C)[C@@H](C)O)C(=O)NCC(=O)N[C@@H](C)C(=O)N[C@@H](C)C(=O)N1CCC[C@H]1C(=O)N[C@@H](CC(C)C)C(=O)N[C@H](C(=O)N[C@@H](CC(C)C)C(=O)N[C@@H](CO)C(=O)N[C@@H](CCCNC(=N)N)C(=O)N[C@H](C(=O)N[C@H](C(=O)O)C(C)C)[C@@H](C)CC)[C@@H](C)CC
Found: 7.09

* * *

assay-target: HLA-DR DRB1*0901 (DR9) (Homo sapiens, UniProt P01903+P01911, A100R/A103E/D57H/D86V/F55Y/F60I/F76Y/I96F/K127E/L162R/M171V/P40D/Q125H/Q99R/R33Q/R42F/S133A/S66N/T210M/V115G/W38K/Y107V/Y59G/Y89S)
assay-overview: biochemical
Type: binding
condition-details: DRB1 *0901
attribute-measured: pIC50
Lab note — pIC50 values are minus log10 of concentrations in M.

Lookup: Give reported pIC50 value for CC[C@H](C)[C@H](NC(=O)[C@@H](N)CCC(N)=O)C(=O)N[C@@H](Cc1ccc(O)cc1)C(=O)N[C@H](C(=O)N[C@@H](C)C(=O)N[C@@H](C)C(=O)N[C@@H](Cc1ccccc1)C(=O)N[C@H](C(=O)N[C@H](C(=O)N[C@@H](CCC(N)=O)C(=O)N[C@@H](C)C(=O)N[C@@H](C)C(=O)N[C@@H](C)C(=O)N[C@@H](CCC(=O)O)C(=O)N[C@H](C(=O)O)[C@@H](C)O)C(C)C)[C@@H](C)O)C(C)C
Found: 7.19

Lookup: Give reported pIC50 value for CC[C@H](C)[C@H](NC(=O)CNC(=O)[C@H](Cc1ccc(O)cc1)NC(=O)[C@H](CC(C)C)NC(=O)[C@H](CO)NC(=O)[C@H](CC(C)C)NC(=O)[C@H](CC(C)C)NC(=O)[C@H](CO)NC(=O)[C@@H](N)CC(C)C)C(=O)N[C@@H](Cc1c[nH]cn1)C(=O)N[C@@H](CCCCN)C(=O)N[C@@H](CCC(N)=O)C(=O)N[C@@H](CCCCN)C(=O)N[C@@H](CCC(=O)O)C(=O)N[C@@H](CCCCN)C(=O)O
Found: 5.30
